Test system: SKOV-3
ASSAY_EXPLANATION: In vitro cytological inhibitory activity (XTT)
Assay type: cell-based
ASSAY_CONDITIONS: Homo sapiens, SK-OV-3, 72 hrs
OBSERVED_PROPERTY: IC50 (nM)

1) Cn1c(=O)c2cnc3ccc(-c4ccc(N)nc4)nc3c2n(-c2cccc(C(F)(F)F)c2)c1=O :: 63.1
2) O=c1[nH]c(=O)n(-c2cccc(C(F)(F)F)c2)c2c1cnc1ccc(-c3cnc4[nH]ccc4c3)nc12 :: 57.2

----------
TEST_TARGET: AMPKa1 (Homo sapiens (Human), UniProt Q13131)
Sequence (Q13131 whole entry): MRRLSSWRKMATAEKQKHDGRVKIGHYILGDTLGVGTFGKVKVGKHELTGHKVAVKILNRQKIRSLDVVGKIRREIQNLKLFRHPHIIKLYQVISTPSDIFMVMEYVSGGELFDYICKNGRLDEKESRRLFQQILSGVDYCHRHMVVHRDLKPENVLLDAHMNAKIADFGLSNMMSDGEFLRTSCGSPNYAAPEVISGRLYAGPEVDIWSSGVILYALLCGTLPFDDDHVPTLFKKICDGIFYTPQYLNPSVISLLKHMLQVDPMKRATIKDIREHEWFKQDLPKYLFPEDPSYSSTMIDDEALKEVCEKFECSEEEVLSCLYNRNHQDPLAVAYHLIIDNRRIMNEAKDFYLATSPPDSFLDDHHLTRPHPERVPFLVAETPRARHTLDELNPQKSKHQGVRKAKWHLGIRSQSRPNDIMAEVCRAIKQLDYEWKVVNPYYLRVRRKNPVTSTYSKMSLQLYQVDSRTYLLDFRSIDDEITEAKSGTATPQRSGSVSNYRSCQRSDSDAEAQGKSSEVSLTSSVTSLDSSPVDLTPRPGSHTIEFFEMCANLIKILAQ
Sequence (Q9Y478 whole entry partner): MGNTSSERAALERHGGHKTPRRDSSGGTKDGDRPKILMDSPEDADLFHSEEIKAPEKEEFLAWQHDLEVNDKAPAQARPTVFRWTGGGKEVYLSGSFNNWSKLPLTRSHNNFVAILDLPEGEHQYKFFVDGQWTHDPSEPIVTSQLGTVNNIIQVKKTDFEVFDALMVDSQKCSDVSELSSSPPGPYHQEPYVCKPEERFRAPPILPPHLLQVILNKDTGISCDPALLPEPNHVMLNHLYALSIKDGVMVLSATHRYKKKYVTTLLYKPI
Sequence (P54619 whole entry partner): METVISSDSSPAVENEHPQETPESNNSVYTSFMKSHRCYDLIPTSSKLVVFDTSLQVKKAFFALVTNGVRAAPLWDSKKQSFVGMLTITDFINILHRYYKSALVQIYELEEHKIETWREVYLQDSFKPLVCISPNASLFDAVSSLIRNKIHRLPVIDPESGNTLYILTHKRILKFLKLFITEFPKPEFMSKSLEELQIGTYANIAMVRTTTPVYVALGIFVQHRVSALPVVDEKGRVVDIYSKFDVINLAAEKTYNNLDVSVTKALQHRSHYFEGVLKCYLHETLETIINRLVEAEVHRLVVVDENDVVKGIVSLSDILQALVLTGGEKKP
ASSAY_EXPLANATION: Kinase selectivity, Mobility shift assay
Format: biochemical
OBSERVED_PROPERTY: IC50

1. Nc1ccc(-c2ccc3ncc4c(=O)[nH]c(=O)n(-c5cccc(C(F)(F)F)c5)c4c3n2)cn1 :: > 10000 nM

----------
Tested on: A549
ASSAY_EXPLANATION: In vitro cytological inhibitory activity (XTT)
Format: cell-based
ASSAY_CONDITIONS: Homo sapiens, 72 hrs
Here, each record is paired with measured IC50 data.
OBSERVED_PROPERTY: IC50 (nM)

1) Cn1c(=O)c2cnc3ccc(-c4ccc(N)nc4)nc3c2n(-c2cccc(C(F)(F)F)c2)c1=O :: 89.5
2) O=c1[nH]c(=O)n(-c2cccc(C(F)(F)F)c2)c2c1cnc1ccc(-c3cnc4[nH]ccc4c3)nc12 :: 107

----------
Attribute: clearance
ASSAY_EXPLANATION: In vivo pharmacokinetics assay in rat
ASSAY_CONDITIONS: male, SD, plasma, iv, rats, I.V, 2 mg/kg
OBSERVED_PROPERTY: clearance

1) O=c1[nH]c(=O)n(-c2cccc(C(F)(F)F)c2)c2c1cnc1ccc(-c3cnc4[nH]ccc4c3)nc12 :: 11 mL/min/kg
2) Nc1ccc(-c2ccc3ncc4c(=O)[nH]c(=O)n(-c5cccc(C(F)(F)F)c5)c4c3n2)cn1 :: 3.5 mL/min/kg

----------
TEST_TARGET: UniProtKB P21709
Sequence (P21709 26-976, species assumed): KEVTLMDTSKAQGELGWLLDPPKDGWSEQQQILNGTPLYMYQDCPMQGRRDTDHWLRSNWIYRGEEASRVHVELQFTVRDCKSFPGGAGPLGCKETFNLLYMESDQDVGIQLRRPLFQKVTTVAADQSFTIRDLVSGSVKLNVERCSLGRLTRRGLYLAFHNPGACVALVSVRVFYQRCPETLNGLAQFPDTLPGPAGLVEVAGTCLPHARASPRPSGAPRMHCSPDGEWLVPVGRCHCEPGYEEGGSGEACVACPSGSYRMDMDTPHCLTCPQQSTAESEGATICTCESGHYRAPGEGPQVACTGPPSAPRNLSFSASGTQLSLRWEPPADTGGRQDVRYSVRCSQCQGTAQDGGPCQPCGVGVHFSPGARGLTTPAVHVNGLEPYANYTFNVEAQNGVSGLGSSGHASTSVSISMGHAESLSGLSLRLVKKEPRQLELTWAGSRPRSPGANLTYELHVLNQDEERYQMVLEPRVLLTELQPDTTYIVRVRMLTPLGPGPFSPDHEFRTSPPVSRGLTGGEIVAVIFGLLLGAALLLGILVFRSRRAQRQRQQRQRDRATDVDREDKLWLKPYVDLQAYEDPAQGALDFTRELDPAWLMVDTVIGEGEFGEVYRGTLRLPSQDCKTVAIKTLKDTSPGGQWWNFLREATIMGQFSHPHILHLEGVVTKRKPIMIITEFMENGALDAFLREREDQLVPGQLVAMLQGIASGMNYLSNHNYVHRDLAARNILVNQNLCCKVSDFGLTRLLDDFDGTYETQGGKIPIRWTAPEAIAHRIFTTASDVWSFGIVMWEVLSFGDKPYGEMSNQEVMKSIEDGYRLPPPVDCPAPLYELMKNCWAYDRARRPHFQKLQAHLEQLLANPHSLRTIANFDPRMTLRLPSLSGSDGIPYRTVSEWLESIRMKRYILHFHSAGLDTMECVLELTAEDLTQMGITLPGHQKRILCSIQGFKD
ASSAY_EXPLANATION: Kinase selectivity, Mobility shift assay
Type: biochemical
OBSERVED_PROPERTY: IC50 (nM)

1) Nc1ccc(-c2ccc3ncc4c(=O)[nH]c(=O)n(-c5cccc(C(F)(F)F)c5)c4c3n2)cn1 [Compound 5] :: 1470

----------
ASSAY_EXPLANATION: In vivo pharmacokinetics assay in rat
ASSAY_CONDITIONS: male, SD, plasma, po, rats, P.O, 4 mg/kg
half-life values for the compounds below.
OBSERVED_PROPERTY: half-life (h)

1) Nc1ccc(-c2ccc3ncc4c(=O)[nH]c(=O)n(-c5cccc(C(F)(F)F)c5)c4c3n2)cn1 :: 5.77
2) O=c1[nH]c(=O)n(-c2cccc(C(F)(F)F)c2)c2c1cnc1ccc(-c3cnc4[nH]ccc4c3)nc12 :: 9.42

----------
TEST_TARGET: UniProtKB P17252
ASSAY_EXPLANATION: Kinase selectivity, Mobility shift assay
Assay type: biochemical
OBSERVED_PROPERTY: IC50

1) Nc1ccc(-c2ccc3ncc4c(=O)[nH]c(=O)n(-c5cccc(C(F)(F)F)c5)c4c3n2)cn1 :: > 10000 nM

----------
TEST_TARGET: p38a (Homo sapiens (Human))
Sequence (Q16539 whole entry): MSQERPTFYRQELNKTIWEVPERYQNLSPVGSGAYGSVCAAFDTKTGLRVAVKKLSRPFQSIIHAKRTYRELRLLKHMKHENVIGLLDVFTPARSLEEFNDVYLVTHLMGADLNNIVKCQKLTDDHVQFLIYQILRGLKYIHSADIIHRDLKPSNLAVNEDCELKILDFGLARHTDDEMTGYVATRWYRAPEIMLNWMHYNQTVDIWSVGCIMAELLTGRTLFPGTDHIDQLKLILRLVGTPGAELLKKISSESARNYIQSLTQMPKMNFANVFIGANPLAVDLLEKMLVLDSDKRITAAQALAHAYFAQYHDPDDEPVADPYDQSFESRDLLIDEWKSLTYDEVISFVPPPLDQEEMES
ASSAY_EXPLANATION: Kinase selectivity, Mobility shift assay
Format: biochemical
OBSERVED_PROPERTY: IC50

1) Nc1ccc(-c2ccc3ncc4c(=O)[nH]c(=O)n(-c5cccc(C(F)(F)F)c5)c4c3n2)cn1 :: > 10000 nM
